Hello, the source for this data is the supplement of paper PMC9938120, in case you need it.

System: FMOC25_1 (patient-derived low-grade serous ovarian cancer cells)
EXPERIMENT_SUMMARY: drug sensitivity score (DSS3, normalised partial AUC of % inhibition dose-response) (DSS (score)); higher = more sensitive (stronger inhibition of viability); extreme values may be limits of the assay
CONDITION_NOTES: 72 h; library: FO4B; assay format: 2D, 384-well, CellTiter-Glo
READOUT_NAME: drug sensitivity score
API note: the answer field is a bare number with no unit suffix.

// below: answered compounds
[
  {
    "COMPOUND": "Cn1cc(C[C@@H](N)C(=O)O)c2ccccc21",
    "drug sensitivity score": 0
  },
  {
    "COMPOUND": "O=C(Nc1ccncc1)C(=O)c1cn(Cc2ccc(Cl)cc2)c2ccccc12",
    "drug sensitivity score": 5.5
  },
  {
    "COMPOUND": "CCCCNc1ncc(C(=O)NCc2ccc(-n3ccnc3)cc2)c(NC2CCC(O)CC2)n1 (centres undefined)",
    "drug sensitivity score": 0
  }
]

Turning to the following compound.
# input # query: drug sensitivity score of entry `CNC(=O)c1cccc(-c2ccc3c(N4CCOC[C@@H]4C)nc(N4CCOC[C@@H]4C)nc3n2)c1`
# output 20.5

###

System: FMOC25_2 (patient-derived low-grade serous ovarian cancer cells)
EXPERIMENT_SUMMARY: drug sensitivity score (DSS3, normalised partial AUC of % inhibition dose-response) (DSS (score)); higher = more sensitive (stronger inhibition of viability); extreme values may be limits of the assay
CONDITION_NOTES: 72 h; library: FO5A; assay format: 2D, 384-well, CellTiter-Glo
Returns true if the recorded drug sensitivity score is greater than or equal to 3, and false otherwise.

Record excerpt, results attached:
[
  {
    "COMPOUND": "CC(=O)c1cnc2ccc(-c3cc(Cl)c(O)c(Cl)c3)nc2c1N[C@H]1CC[C@H](CN(C)C)CC1 [OTS167]",
    "ASSAY_SYSTEM": "FMOC25_2",
    "CATEGORY": "true"
  },
  {
    "COMPOUND": "O=C1c2c(O)ccc(O)c2C(=O)c2c(NCCNCCO)ccc(NCCNCCO)c21 [Mitoxantrone]",
    "ASSAY_SYSTEM": "FMOC25_2",
    "CATEGORY": "true"
  },
  {
    "COMPOUND": "Cc1[nH]c2ccccc2c1CCNCc1ccc(/C=C/C(=O)NO)cc1 [Panobinostat]",
    "ASSAY_SYSTEM": "FMOC25_2",
    "CATEGORY": "true"
  },
  {
    "COMPOUND": "Cc1nc(=O)c2cc(CN(C)c3ccc(C(=O)N[C@@H](CCC(=O)O)C(=O)O)s3)ccc2[nH]1 [Raltitrexed]",
    "ASSAY_SYSTEM": "FMOC25_2",
    "CATEGORY": "false"
  },
  {
    "COMPOUND": "O=C(NC1CCNCC1)c1n[nH]cc1NC(=O)c1c(Cl)cccc1Cl [AT7519]",
    "ASSAY_SYSTEM": "FMOC25_2",
    "CATEGORY": "true"
  }
]

# input Textbook exercise: given the entry CN(C)C(=O)c1cc2cnc(Nc3ccc(N4CCNCC4)cn3)nc2n1C1CCCC1 [Ribociclib] , state whether its drug sensitivity score is greater than or equal to 3.
# output false

###

System: FMOC27 (patient-derived low-grade serous ovarian cancer cells)
EXPERIMENT_SUMMARY: drug sensitivity score (DSS3, normalised partial AUC of % inhibition dose-response) (DSS (score)); higher = more sensitive (stronger inhibition of viability); extreme values may be limits of the assay
CONDITION_NOTES: 72 h; library: FO5A; assay format: 2D, 384-well, CellTiter-Glo
Rule: drug sensitivity score under 0.1 gives false (0), otherwise true (1).

# count of solved cases: 10
[
  {
    "MOLECULE": "O=C(NC[C@H](O)CN1CCc2ccccc2C1)c1cc(NC2COC2)ncn1",
    "CATEGORY": "true (1)"
  },
  {
    "MOLECULE": "NC[C@@](O)(c1ccc(Cl)cc1)c1ccc(-c2cn[nH]c2)cc1",
    "CATEGORY": "false (0)"
  },
  {
    "MOLECULE": "COc1ccc(Cn2ccc3ccc(C(=O)NO)cc32)cc1",
    "CATEGORY": "true (1)"
  },
  {
    "MOLECULE": "CC(C)c1c(C(=O)Nc2ccccc2)c(-c2ccccc2)c(-c2ccc(F)cc2)n1CC[C@@H](O)C[C@@H](O)CC(=O)O [Atorvastatin]",
    "CATEGORY": "false (0)"
  },
  {
    "MOLECULE": "Cc1cnc(-c2ccccc2C(C)C)nc1NCc1ccc(-n2ccnn2)cc1 [ML323]",
    "CATEGORY": "true (1)"
  },
  {
    "MOLECULE": "CNC(=O)c1ccc(N2C(=S)N(c3cnc(C#N)c(C(F)(F)F)c3)C(=O)C23CCC3)cc1F [Apalutamide]",
    "CATEGORY": "false (0)"
  },
  {
    "MOLECULE": "COCCOc1cnc2ccn([C@H](C)c3nnc4c(F)cc(-c5cnn(C)c5)cn34)c(=O)c2c1 [AMG-337]",
    "CATEGORY": "false (0)"
  },
  {
    "MOLECULE": "Cc1cc(Nc2ncc(Cl)c(Nc3ccccc3S(=O)(=O)C(C)C)n2)c(OC(C)C)cc1C1CCNCC1 [Ceritinib]",
    "CATEGORY": "true (1)"
  },
  {
    "MOLECULE": "COc1cc2c(Oc3ccc4[nH]c(C)cc4c3F)ncnc2cc1OCCCN1CCCC1 [Cediranib]",
    "CATEGORY": "false (0)"
  },
  {
    "MOLECULE": "Clc1ccccc1C(c1ccccc1)(c1ccccc1)n1cccn1 [TRAM-34]",
    "CATEGORY": "false (0)"
  }
]

# input Textbook exercise: given the entry NC(=S)N/N=C/c1ncccc1N [Triapine] , state whether its drug sensitivity score is greater than or equal to 0.1.
# output true (1)

# input drug sensitivity score >= 0.1 for CC[C@H](Nc1ncnc2[nH]cnc12)c1nc2cccc(F)c2c(=O)n1-c1ccccc1 [Idelalisib] ?
# output true (1)

# input Given C[C@]12C=CC(=O)C=C1CC[C@@H]1[C@@H]2[C@@H](O)C[C@@]2(C)[C@H]1CC[C@]2(O)C(=O)CO [Prednisolone] , state whether its drug sensitivity score is at least 0.1.
# output false (0)

# input drug sensitivity score >= 0.1 for `Cc1c(-c2c(-c3ccc(F)o3)sc3ncnc(O[C@H](Cc4ccccc4OCc4ccnn4CC(F)(F)F)C(=O)O)c23)ccc(OCCN2CCN(C)CC2)c1Cl` ?
# output false (0)
